Cited source for all entries: a flash point compilation (Sun et al. 2020)

readoutName: flash point
State the value with its unit after it.

Take a look at these entries with their results.
compound=C#CCCCCCC#C result="41 °C"
compound="CC(=O)SC(C)(C)C [S-t-butyl thioacetate]" result="33 °C"
compound="CC(C)=CCCC(C)CC=O (configuration not stated)" result="75 °C"
compound=CC1=CC=CC1 result="26 °C"
compound=CCCCC=CCCCC result="46 °C"

Reported flash point ( `C1=CCCC=CCC1` ) = 32 °C

Per the records, this compound ( `CCc1ccc(CC)cc1` ) has flash point equal to 56 °C

// flash point lookup, compound = `C=C(C)C(=C)C` , result: -22 °C

Item: CCCCOC(=O)CC [butyl propionate] | flash point: 32 °C

The compound `CNc1ccccc1` showed flash point equal to 80 °C
